system: KG1a; assay: Inhibition of proliferation (CellTiterblue, 72 hr), KG1a; type: cell-based, human; settings: Homo sapiens, KG-1a; 72 hr
Quick reference: log10 of GI50 of the listed items.
Please be aware that the numbers have been log10-transformed from GI50 in nM.

# annotated cases, reported log10 of GI50 shown
Cc1cc2c(F)c(Oc3ncnc(Nc4ccc(N5CCNCC5)c(F)c4)c3C#N)ccc2[nH]1 = 2.50
Cc1cc2c(F)c(Oc3ncnc(Nc4ccc(NC(=O)CN5CCN(C)CC5)cc4)c3C#N)cc(F)c2[nH]1 = 1.49

Check KG1a data and give log10 of GI50 for Cc1cc2c(F)c(Oc3ncnc(Nc4ccc(N5CCN(C)CC5)c(F)c4)c3C#N)ccc2[nH]1 .
1.79

Check KG1a data and give log10 of GI50 for Cc1cc2c(F)c(Oc3ncnc(Nc4ccc(C(N)=O)cc4)c3C#N)cc(F)c2[nH]1 .
2.26

Check KG1a data and give log10 of GI50 for CCC(=O)Nc1cccc(Nc2ncnc(Oc3cc(F)c4[nH]c(C)cc4c3F)c2C#N)c1 .
2.24

Check KG1a data and give log10 of GI50 for Cc1cc2c(F)c(Oc3ncnc(Nc4ccc(N5CCCS5(=O)=O)cc4)c3C#N)ccc2[nH]1 .
2.35

Check KG1a data and give log10 of GI50 for CCN1CCN(c2ccc(Nc3ncnc(Oc4cc(F)c5[nH]c(C)cc5c4F)c3C#N)cc2)CC1C (stereo not drawn) .
-0.26

Check KG1a data and give log10 of GI50 for C=CC(=O)Nc1cccc(Nc2ncnc(Oc3cc(F)c4[nH]c(C)cc4c3F)c2C#N)c1 .
0.56

Check KG1a data and give log10 of GI50 for Cc1cc2c(F)c(Oc3ncnc(Nc4ccc(N5C[C@@H](C)N[C@@H](C)C5)cc4)c3C#N)ccc2[nH]1 .
-0.13

Check KG1a data and give log10 of GI50 for Cc1cc2c(F)c(Oc3ncnc(Nc4ccc(N5CCC(N(C)C)CC5)cc4)c3C#N)ccc2[nH]1 .
1.40

Check KG1a data and give log10 of GI50 for CCN1CCN(c2ccc(Nc3ncnc(Oc4ccc5[nH]c(C)cc5c4F)c3C#N)cc2F)CC1 .
2.40

Check KG1a data and give log10 of GI50 for Cc1cc2c(F)c(Oc3ncnc(Nc4ccc(N5CCN6CCCCC6C5)cc4)c3C#N)cc(F)c2[nH]1 (stereo not drawn) .
0.21
